# Tested on: Wild-type HSV-1 (F)
# protocol: in vitro viral replication assay, wild-type HSV-1 (F)
# Assay type: cell-based, herpes simplex virus 1
# experimental context: Human alphaherpesvirus 1; in vitro viral replication assay; read-out: IC50 Wild-type HSV-1 (F)
measurement label: pIC50
Kindly note that pIC50 refers to -log10 of the concentration in mol/L and answer with the value alone.

The molecule Nc1nc2c(ncn2COCCO)c(=O)[nH]1 [Acyclovir, acyclovir, reference compound] on Wild-type HSV-1 (F): pIC50 was 6.00

###

# System: HSV-1 Walkie
# protocol: in vivo lethal challenge model, HSV-1 Walki
# experimental context: p.o., mice, 3 times a day for 5 days, survival
measurement label: in vivo lethal challenge model HSV-1 Walkie ED50 (mg/kg)
Supply the numeric figure in mg/kg, leaving out any unit text.

Entry `Cc1nc(N(C)C(=O)Nc2ccc(N3CCOCC3)cc2)sc1S(=O)(=O)N(C)C` — recorded in vivo lethal challenge model HSV-1 Walkie ED50 = 60

Entry `Cc1nc(N(C)C(=O)Cc2ccc(-c3ccccc3)cc2)sc1S(N)(=O)=O` — recorded in vivo lethal challenge model HSV-1 Walkie ED50 = 0.5

Entry `CNS(=O)(=O)c1sc(N(C)C(=O)Cc2ccc(-c3ccccc3)cc2)nc1C` — recorded in vivo lethal challenge model HSV-1 Walkie ED50 = 1

Entry `CNS(=O)(=O)c1sc(N(C)C(=O)Nc2ccc(-c3ccccc3)cc2)nc1C` — recorded in vivo lethal challenge model HSV-1 Walkie ED50 = 8

Entry `CNS(=O)(=O)c1sc(N(C)C(=O)Nc2ccc(N3CCOCC3)cc2)nc1C` — recorded in vivo lethal challenge model HSV-1 Walkie ED50 = 26

The values you see were collected from patent US20020160932A1.
